System: Bacillus subtilis
Protocol Notes: cleaved RNA product abundance (RNA/gDNA barcode ratio) relative to median wild-type variant (ratio to wild type); higher = more accumulation of the downstream cleavage product
Condition: experiment (reporter, strain, medium): exp 2b: truncated aprE reporter, strain BJT200; cleavage site: cggR-gapA (positions -7 to +36 mutated)
Lab note: anything with cleaved RNA product abundance at or over 0.1 counts as Fulfilled; the rest go in Not fulfilled.

Solved cases below.
Residue Sequence: ACAGACGAAGGAGCCGCAAAGAAGTTATAAAGGGATGAATAATCCTTCAATATAAATATCTCTCACTTATTTAAA
System Under Test: Bacillus subtilis
Assigned Class: Fulfilled
//
Residue Sequence: ACAGACGAAGGAGCCGCAAAGAAGTTATTAAGGGATGAATAATACCTCCATATAAATATCTCTCACTTATTTAAA
System Under Test: Bacillus subtilis
Assigned Class: Not fulfilled
//
Residue Sequence: ACAGACGAAGGAGCCGCAAAGAAGTTATAATGGGATGAATAATCCCTCAATATAAATATCTCTCACTTATTTAAA
System Under Test: Bacillus subtilis
Assigned Class: Fulfilled
//
Residue Sequence: ACAGACGAAGGAGCCGCAAAGAAGTTATTAAGGGATGTATAATACCTCAATATAAATATCTCTCACTTATTTAAA
System Under Test: Bacillus subtilis
Assigned Class: Fulfilled
//
Residue Sequence: ACAGACGAAGGAGCCGCAAAGAAGCTATTAAGGGATGAATAATCCCTCAGTATAAATATCTCTCACTTATTTAAA
System Under Test: Bacillus subtilis
Assigned Class: Fulfilled
//
Residue Sequence: ACAGACGAAGGAGCCGCAAACAAGTTATTAATGGATGAATAATCCCTCAATATAAATATCTCTCACTTATTTAAA
System Under Test: Bacillus subtilis
Assigned Class: Not fulfilled

Now for a further sequence.
## Task Has `ACAGACGAAGGAGCCGCAAATAATTTATTAAGGGATGAATAATCCCTCAATATAAATATCTCTCACTTATTTAAA` a recorded cleaved RNA product abundance greater than or equal to 0.1?
## Result Fulfilled

---

Test system: Bacillus subtilis
Protocol Notes: cleaved RNA product abundance (RNA/gDNA barcode ratio) relative to median wild-type variant (ratio to wild type); higher = more accumulation of the downstream cleavage product
Condition: experiment (reporter, strain, medium): exp 2b: truncated aprE reporter, strain BJT200; cleavage site: cggR-gapA (positions -7 to +36 mutated)
Observed Property: cleaved RNA product abundance

Example entries and their recorded answers appear below.
Residue Sequence: ACAGACGAAGGAGCCGCAAAGAAGTTATTAAGGGATGAATAATCCCTCAATATAAATATCTCTCACTATTTAAAG
Observed Result: 1.28
//
Residue Sequence: ACAGACGAAGGAGCCGCAAAGAAGTTTTTAAGGGATGAATATTCCCTCAATATAAATATCTCTCACTTATTTAAA
Observed Result: 0.214
//
Residue Sequence: ACAGACGAAGGAGCCGCAAAGAAGTTATTAAGGCTTGAATAATCCCTCAATATAAATATCTCTCACTTATTTAAA
Observed Result: 0.115

## Task Could you please provide reported cleaved RNA product abundance for `ACAGACGAAGGAGCCGCAAAGAAGTTATTAAGGGATCAATAATCACTCAATATAAATATCTCTCACTTATTTAAA` ? Thanks!
## Result 0.0917
